Property: pKi; scope: individual compounds
- assayText: Inhibition of Trypanosoma cruzi glucokinase
pKi: −log10 of the molar value.
valueType: pKi

{"compound": "O=C(N[C@H]1C(O)O[C@H](CO)[C@@H](O)[C@@H]1O)c1ccc(CCl)cc1 (stereo not given in full)", "valueType": "pKi", "result": "< 3.30"}
{"compound": "O=C(N[C@H]1C(O)O[C@H](CO)[C@@H](O)[C@@H]1O)c1ccoc1 (stereo not given in full)", "valueType": "pKi", "result": 4.82}
{"compound": "O=C(N[C@@H]1C(O)O[C@H](CO)[C@@H](O)[C@@H]1O)c1ccoc1 (stereo not given in full)", "valueType": "pKi", "result": "< 3.30"}
{"compound": "O=C(N[C@@H]1C(O)O[C@H](CO)[C@@H](O)[C@@H]1O)c1cc2ccccc2o1 (stereo not given in full)", "valueType": "pKi", "result": "< 3.30"}
{"compound": "O=C(N[C@H]1C(O)O[C@H](CO)[C@H](O)[C@@H]1O)c1cccc(Br)c1 (stereo not given in full)", "valueType": "pKi", "result": "< 3.30"}
{"compound": "O=C(N[C@H]1C(O)O[C@H](CO)[C@@H](O)[C@@H]1O)c1cccc(Br)c1 (stereo not given in full)", "valueType": "pKi", "result": 4.74}
{"compound": "O=C(N[C@H]1C(O)O[C@H](CO)[C@@H](O)[C@@H]1O)c1cc2ccccc2o1 (stereo not given in full)", "valueType": "pKi", "result": 3.97}
{"compound": "O=C(N[C@H]1C(O)O[C@H](CO)[C@H](O)[C@@H]1O)c1ccc(CCl)cc1 (stereo not given in full)", "valueType": "pKi", "result": "< 3.30"}
{"compound": "O=C(N[C@H]1C(O)O[C@H](CO)[C@H](O)[C@@H]1O)c1ccccc1 (stereo not given in full)", "valueType": "pKi", "result": "< 3.30"}
{"compound": "O=C(N[C@H]1C(O)O[C@H](CO)[C@H](O)[C@@H]1O)c1ccoc1 (stereo not given in full)", "valueType": "pKi", "result": "< 3.30"}
